Tested on: Plasmodium berghei
Experiment: Screen against P. berghei liver stage (PbLuc), transformed with Luciferase, at 10uM
Type: functional, HepG2
Settings: tested at 10 uM
Screen size: about 69,000 compounds; about 8,600 (12%) showed an effect of 50% or more. The sample as a whole holds a higher share of strong results than the screen did.
Assign class by INHIBITION: not lower than 30% means t; lower than 30% means f.

Please review the entries below; each comes with its answer.
{"compound": "CC(NC(=O)N1CCC2(C1)OCCO2)c1cccc(Cl)c1 (configuration not stated)", "class_name": "f"}
{"compound": "CS(=O)(=O)c1cc(Cl)cnc1C1CCN(C(=O)C2CCOCC2)CC1", "class_name": "f"}
{"compound": "CNc1cc2c(nn1)CCN(C(=O)c1ccc3c(c1)CCC3)C2", "class_name": "f"}

Textbook exercise: given the entry Cc1cccc(N2N=C(C(=O)NC(C)Cc3ccco3)CCC2=O)c1 (configuration not stated) , state whether its INHIBITION is greater than or equal to 30%. t

Reported INHIBITION at or above 30%? Cc1csc(CNc2nc3c(s2)c(C)nn3C)n1 f

Exam item: decide whether the reported INHIBITION for CN1CCN([C@@H]2CCN(Cc3cccc(-n4cccn4)c3)C[C@H]2O)CC1 is at least 30%. f

Assess whether reported INHIBITION for CCc1csc(CNc2nc3c(s2)c(C)nn3C)n1 sits at 30% or higher. t

Assess whether reported INHIBITION for COc1cc(CN2CC[C@@]3(CCCO3)[C@@H](O)C2)ccc1F sits at 30% or higher. t

Form field: INHIBITION at least 30%? Entry: CC(C(=O)Nc1ccc(Cl)cn1)N1CCc2nn(C)c(=O)cc2C1 (configuration not stated) f

Is the recorded value of INHIBITION equal to or greater than 30% for this compound? COc1cc(CN2CCC3(CC2)[C@H](O)C[C@@H]3OCCO)ccc1F t

hey, is INHIBITION for this one >= 30%? Cc1ncccc1Oc1nccnc1C1CCN(C(C)C)CC1 t

Decide: is the reported value of INHIBITION for NCCO[C@H]1C[C@@H](O)C12CCN(Cc1c(F)cccc1F)CC2 equal to or greater than 30%? t

Tell me whether INHIBITION is at least 30% here: Cc1nc(CNc2nc3c(s2)c(C)nn3C)cs1 t

Does INHIBITION meet or surpass 30% for CCc1nccn1-c1nccnc1C1CCN(C(=O)COC)CC1 ? t

Answer whether INHIBITION of Cc1ncccc1Oc1nccnc1C1CCN(S(C)(=O)=O)CC1 is greater than or equal to 30%. t

Hello, I need to know if Cc1cccc(N2N=C(C(=O)NC(C)Cn3cccn3)CCC2=O)c1 (configuration not stated) has measured INHIBITION not below 30%. Thanks! t

Check if INHIBITION >= 30% (inclusive). Item: Fc1ccc(C2(c3noc(CCN4CCCCO4)n3)CCOC2)cc1 (configuration not stated) f
